experimental.protocol: Rivaroxaban urine pharmacokinetics
Format: in vivo, human
assay.setup: human, urine and plasma, oral, CLR, renal clearance, rivaroxaban 10 mg + erythromycin 500 mg tid; normal renal function; arithmetic mean (SD)
assay.readout: CL renal (mL/min)
Just the number please, in mL/min, no unit attached.

Ask: Would you mind telling me what CL renal value was observed for O=C(NC[C@H]1CN(c2ccc(N3CCOCC3=O)cc2)C(=O)O1)c1ccc(Cl)s1 ?
Reply: 34.3

* * *

experimental.protocol: Rivaroxaban urine pharmacokinetics
Type: in vivo, human
assay.setup: human, urine and plasma, oral, CLR, renal clearance, rivaroxaban 10 mg + erythromycin 500 mg tid; moderate renal impairment; arithmetic mean (SD)
assay.readout: CL renal (mL/min)
Kindly answer with a numeric value in mL/min, unit omitted.

Ask: # get_value(readout='CL renal', item= O=C(NC[C@H]1CN(c2ccc(N3CCOCC3=O)cc2)C(=O)O1)c1ccc(Cl)s1 )
Reply: 13.3

* * *

Format: in vivo, human
assay.setup: human, plasma, oral, AUC∞, rivaroxaban 10 mg + erythromycin 500 mg tid; normal renal function; arithmetic mean (SD)
assay.readout: AUC(0-inf) (ng·h/mL)
State the answer as a number, implicitly in ng·h/mL.

Ask: Dear colleague, I am looking for the recorded AUC(0-inf) of the following molecule: O=C(NC[C@H]1CN(c2ccc(N3CCOCC3=O)cc2)C(=O)O1)c1ccc(Cl)s1
Reply: 2470

* * *

Format: in vivo, human
assay.setup: human, plasma, oral, 10 mg, AUC∞, rivaroxaban 10 mg; mild renal impairment; arithmetic mean (SD)
assay.readout: AUC(0-inf) (ng·h/mL)
Field format: number, assumed ng·h/mL, no unit text.

Ask: May I ask what AUC(0-inf) has been recorded for O=C(NC[C@H]1CN(c2ccc(N3CCOCC3=O)cc2)C(=O)O1)c1ccc(Cl)s1 [Rivaroxaban, rivaroxaban] ?
Reply: 2020

* * *

Format: in vivo, human
assay.setup: human, plasma, oral, AUC∞, rivaroxaban 5 mg + erythromycin 500 mg tid; moderate renal impairment; arithmetic mean (SD)
assay.readout: AUC(0-inf)

Ask: Consider the compound O=C(NC[C@H]1CN(c2ccc(N3CCOCC3=O)cc2)C(=O)O1)c1ccc(Cl)s1 and give its measured AUC(0-inf).
Reply: 1.98 µg·h/mL

* * *

Format: in vivo, human
assay.setup: human, plasma, oral, 10 mg, tmax, rivaroxaban 10 mg; moderate renal impairment; median (minimum–maximum)
assay.readout: Tmax (h)
Respond with the bare value in h.

Ask: What value of measured Tmax is listed for O=C(NC[C@H]1CN(c2ccc(N3CCOCC3=O)cc2)C(=O)O1)c1ccc(Cl)s1 ?
Reply: 3

* * *

Assay type: in vivo, human
assay.setup: human, plasma, oral, Vd/F, rivaroxaban 5 mg + erythromycin 500 mg tid; mild renal impairment; arithmetic mean (SD)
assay.readout: Vd/F (L)
A number alone suffices; assume L.

Ask: Returns the measured Vd/F for the input compound. Input: O=C(NC[C@H]1CN(c2ccc(N3CCOCC3=O)cc2)C(=O)O1)c1ccc(Cl)s1 [Rivaroxaban, rivaroxaban]
Reply: 37.5

* * *

experimental.protocol: Rivaroxaban urine pharmacokinetics
Format: in vivo, human
assay.setup: human, urine and plasma, oral, CLR, renal clearance, rivaroxaban 5 mg + erythromycin 500 mg tid; moderate renal impairment; arithmetic mean (SD)
assay.readout: CL renal (mL/min)
Provide only the numeric value, understood in mL/min.

Ask: Any idea what CL renal was measured for O=C(NC[C@H]1CN(c2ccc(N3CCOCC3=O)cc2)C(=O)O1)c1ccc(Cl)s1 [Rivaroxaban, rivaroxaban] ?
Reply: 9.25

* * *

Type: in vivo, human
assay.setup: human, plasma, oral, 10 mg, AUC∞, geometric mean, Normal RF; rivaroxaban 10 mg
assay.readout: AUC(0-inf) (ng·h/mL)
Your answer is read as ng·h/mL, so omit the unit and give the number.

Ask: Item under review: O=C(NC[C@H]1CN(c2ccc(N3CCOCC3=O)cc2)C(=O)O1)c1ccc(Cl)s1 . Reported AUC(0-inf)?
Reply: 1750

* * *

Type: in vivo, human
assay.setup: human, plasma, oral, 10 mg, Vd/F, rivaroxaban 10 mg; mild renal impairment; arithmetic mean (SD)
assay.readout: Vd/F (L)
// note: answer is a bare numeric in L

Ask: Which measured Vd/F value corresponds to O=C(NC[C@H]1CN(c2ccc(N3CCOCC3=O)cc2)C(=O)O1)c1ccc(Cl)s1 ?
Reply: 77.3

* * *

Assay type: in vivo, human
assay.setup: human, plasma, oral, Vd/F, rivaroxaban 10 mg + erythromycin 500 mg tid; mild renal impairment; arithmetic mean (SD)
assay.readout: Vd/F (L)
Please respond with the number in L and leave the unit unwritten.

Ask: Requested read-out: Vd/F. Entry: O=C(NC[C@H]1CN(c2ccc(N3CCOCC3=O)cc2)C(=O)O1)c1ccc(Cl)s1 [Rivaroxaban, rivaroxaban]
Reply: 46

* * *

experimental.protocol: Rivaroxaban urine pharmacokinetics
Format: in vivo, human
assay.setup: human, urine and plasma, oral, CLR, renal clearance, rivaroxaban 5 mg + erythromycin 500 mg tid; mild renal impairment; arithmetic mean (SD)
assay.readout: CL renal
I'd appreciate it if you included the unit after the number.

Ask: So what's the measured CL renal for this one? O=C(NC[C@H]1CN(c2ccc(N3CCOCC3=O)cc2)C(=O)O1)c1ccc(Cl)s1
Reply: 15.9 mL/min

* * *

Assay type: in vivo, human
assay.setup: human, plasma, oral, 10 mg, AUC∞, geometric mean, Mild RI; rivaroxaban 10 mg
assay.readout: AUC(0-inf) (ng·h/mL)
Please respond with the number in ng·h/mL and leave the unit unwritten.

Ask: Given the compound O=C(NC[C@H]1CN(c2ccc(N3CCOCC3=O)cc2)C(=O)O1)c1ccc(Cl)s1 [Rivaroxaban, rivaroxaban] , what is its reported AUC(0-inf)?
Reply: 2000
